EC50 listing for selected molecules.
test system: A2780 ovarian cancer cells; experiment: Cellular proliferation in A2780 cells, Cell Titer Glo (Biological Method 4); assay type: cell-based; conditions: Homo sapiens; ovarian cancer cell line A2780
value.kind: EC50

compound.structure	experimental.system	value
CS(=O)(=O)N1CC[C@@H](Oc2cc(-c3cnc(N)cc3C(F)(F)F)nc(N3CCOCC3)n2)C1	A2780 ovarian cancer cells	< 10 µM
Nc1ccc(-c2cc(Nc3ccc(S(N)(=O)=O)cc3)nc(N3CCOCC3)n2)cn1	A2780 ovarian cancer cells	< 10 µM
Nc1ncc(-c2cc(N3CCOc4ccccc43)nc(N3CCOCC3)n2)cn1	A2780 ovarian cancer cells	< 1 µM
CN1CCN(c2ccc(Nc3cc(-c4cnc(N)nc4)nc(N4CCOCC4)n3)cn2)CC1	A2780 ovarian cancer cells	< 1 µM
CN(C)c1ccc(-c2cc(-c3ccc(N)nc3)nc(N3CCOCC3)n2)cn1	A2780 ovarian cancer cells	< 10 µM
Nc1ncc(-c2cc(O[C@H]3CCOC3)nc(N3CCOCC3)n2)c(C(F)(F)F)n1	A2780 ovarian cancer cells	< 10 µM
Nc1ccc(-c2cc(-c3cccnc3F)nc(N3CCOCC3)n2)cn1	A2780 ovarian cancer cells	< 10 µM
Nc1ncc(-c2cc(O[C@@H]3CCOC3)nc(N3CCOCC3)n2)c(=O)[nH]1	A2780 ovarian cancer cells	< 1 µM

Values compiled from patent US8217035B2.
